- System Tested: NTCP (Homo sapiens, UniProt Q14973)
- Construct: expressed in transfected cells
- Sequence (Q14973 whole entry): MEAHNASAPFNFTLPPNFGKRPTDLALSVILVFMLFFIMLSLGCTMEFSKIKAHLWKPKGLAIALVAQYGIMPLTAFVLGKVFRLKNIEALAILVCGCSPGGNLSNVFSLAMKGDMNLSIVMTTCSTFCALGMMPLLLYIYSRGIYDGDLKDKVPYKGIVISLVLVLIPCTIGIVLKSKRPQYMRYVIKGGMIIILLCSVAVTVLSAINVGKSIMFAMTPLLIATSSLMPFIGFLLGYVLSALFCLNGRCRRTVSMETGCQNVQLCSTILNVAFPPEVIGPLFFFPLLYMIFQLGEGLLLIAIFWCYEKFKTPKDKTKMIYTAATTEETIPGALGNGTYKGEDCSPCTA
- Assay Notes: [3H]preS1 (myr-preS1_2-48 lipopeptide) binding inhibition in NTCP-HEK293 cells
- Condition: mean IC50; 5 nM [3H]preS1; NTCP-HEK293 cells; standard pH 7.4; read-out: IC50 [3H]preS1 binding inhibition
pIC50: −log10 of the molar value.
Could you please report measured pIC50 for the items listed next?

Compound | pIC50
C=C(C)[C@@H]1CC[C@]2(COC(=O)CCC(=O)O)CC[C@]3(C)[C@H](CC[C@@H]4[C@@]5(C)CC[C@H](O)C(C)(C)[C@@H]5CC[C@]43C)[C@@H]12 | 5.52 to 5.70
C=C(C)[C@@H]1CC[C@]2(C(=O)N[C@@H](CC(=O)OC)C(=O)OC)CC[C@]3(C)[C@H](CC[C@@H]4[C@@]5(C)CCC(=O)C(C)(C)[C@@H]5CC[C@]43C)[C@@H]12 [Compound 19, Betulonoyl dimethyl-L-aspartate] | 4.30 to 4.96
C=C(C)[C@@H]1CC[C@]2(COC(=O)CCC(=O)O)CC[C@]3(C)[C@H](CC[C@@H]4[C@@]5(C)CC[C@H](OC(=O)CCC(=O)O)C(C)(C)[C@@H]5CC[C@]43C)[C@@H]12 | > 5.00
C=C(C)[C@@H]1CC[C@]2(COC(=O)CC(C)(C)CC(=O)O)CC[C@]3(C)[C@H](CC[C@@H]4[C@@]5(C)CC[C@H](O)C(C)(C)[C@@H]5CC[C@]43C)[C@@H]12 | > 5.00

Turning now to a further record.
Query block: May I ask what pIC50 has been recorded for C=C(C)[C@@H]1CC[C@]2(COC3CCCCO3)CC[C@]3(C)[C@H](CC[C@@H]4[C@@]5(C)CC[C@H](O)C(C)(C)[C@@H]5CC[C@]43C)[C@@H]12 (some centres unmarked) [Compound 13, 28-(Tetrahydro-2H-pyran-2-yl)betulin] ?
Result block: 4.30 to 4.96
